# reported self-splicing fitness (ln); entries follow
# MEASUREMENT DESCRIPTION: self-splicing fitness, log relative to wild type (ln ratio); higher = more splicing; Tetrahymena group I intron in knt gene, E. coli kanamycin selection, DiMSum; sequences stand for … in CUCUCU…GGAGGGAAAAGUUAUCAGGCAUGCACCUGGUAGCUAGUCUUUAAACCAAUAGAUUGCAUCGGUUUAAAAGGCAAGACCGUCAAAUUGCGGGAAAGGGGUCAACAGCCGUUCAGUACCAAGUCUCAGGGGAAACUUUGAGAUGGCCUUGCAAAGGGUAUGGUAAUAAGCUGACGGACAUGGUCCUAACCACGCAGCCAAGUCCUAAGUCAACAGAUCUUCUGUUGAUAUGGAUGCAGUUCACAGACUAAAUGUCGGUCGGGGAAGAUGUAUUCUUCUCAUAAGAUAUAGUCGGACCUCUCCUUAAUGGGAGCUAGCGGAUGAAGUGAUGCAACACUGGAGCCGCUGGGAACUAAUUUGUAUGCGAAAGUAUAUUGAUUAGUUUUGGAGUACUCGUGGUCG;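 further: selection with 25 µg/mL kanamycin versus none on LB agar overnight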
# TEST CONDITIONS: 30 °C
Give the value as a plain number.

These solved cases illustrate the format of a correct answer.
GUAGAGCAAUAUUACGGAAA	-2.18
CCUCAGCAAUAUUACGCGGU	-3.37

IN: Give the value of self-splicing fitness (ln) reported for the following: UUAGAGCAAUAUUACGAUUG
OUT: -1.95

IN: Give the value of self-splicing fitness (ln) reported for the following: GCUCAGCAAUAUUACGGAUU
OUT: -0.53
